# assayed-target: T1, human tissue factor pathway inhibitor (TFPI) (human, UniProt P10646 29-304, limits assumed); also: test concentration or dose not given here
# T1 sequence (looked up): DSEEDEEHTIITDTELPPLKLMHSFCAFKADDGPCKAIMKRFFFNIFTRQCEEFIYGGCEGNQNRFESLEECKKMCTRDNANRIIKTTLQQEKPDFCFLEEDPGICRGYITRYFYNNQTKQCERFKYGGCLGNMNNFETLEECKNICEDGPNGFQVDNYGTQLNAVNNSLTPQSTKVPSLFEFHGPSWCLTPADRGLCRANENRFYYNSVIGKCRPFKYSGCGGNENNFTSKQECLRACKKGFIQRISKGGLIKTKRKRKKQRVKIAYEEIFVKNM
# test: cell-based or functional assay
Known dPT in hemoA plasma of a selection of binders
Write the value in s as a bare number.

Consider the following illustrative entries.
- binder: "TP-3G1 Fab (Fab, V domains shown, Human Fab from HuCal Gold, expressed in E. coli TG1) VH: QVQLQQSGPGLVKPSQTLSLTCAISGDSVSSNSGGWGWIRQSPGRGLEWLGLIYYRSKWYNAYAVSVKSRITINPDTSKNQFSLQLNSVTPEDTAVYYCARYLGSNFYVYSDVWGQGTLVTVSS VL: DIQMTQSPSSLSASVGDRVTITCRASQGISSYLHWYQQKPGKAPKLLIYGASTLQSGVPSRFSGSGSGTDFTLTISSLQPEDFATYYCQQQNGYPFTFGQGTKVEIKR"
  dPT in hemoA plasma [s]: 75.1
- binder: "TP-2C7 Fab (Fab, V domains shown, Human Fab from HuCal Gold, expressed in E. coli TG1) VH: QVQLQQSGPGLVKPSQTLSLTCAISGDSVSSNSAAWGWIRQSPGRGLEWLGIIYYRSKWYNHYAVSVKSRITINPDTSKNQFSLQLNSVTPEDTAVYYCARSNWSGYFDYWGQGTLVTVSS VL: DIQMTQSPSSLSASVGDRVTITCRASQDIRNNLAWYQQKPGKAPKLLIYAASSLQSGVPSRFSGSGSGTDFTLTISSLQPEDFAVYYCQQRNGFPLTFGQGTKVEIKR"
  dPT in hemoA plasma [s]: 62.5
- binder: "TP-2G7 Fab (Fab, V domains shown, Human Fab from HuCal Gold, expressed in E. coli TG1) VH: QVQLVESGGGLVQPGGSLRLSCAASGFTFNSYAMSWVRQAPGKGLEWVSNISSNSSNTYYADSVKGRFTISRDNSKNTLYLQMNSLRAEDTAVYYCARKGGGEHGFFPSDIWGQGTLVTVSS VL: DIELTQPPSVSVAPGQTARISCSGDNLGTYYVHWYQQKPGQAPVLVIYGDNNRPSGIPERFSGSNSGNTATLTISGTQAEDEADYYCQTYDSNNESIVFGGGTKLTVLG"
  dPT in hemoA plasma [s]: 72.2
- binder: "TP-2A8 Fab (Fab, V domains shown, Human Fab from HuCal Gold, expressed in E. coli TG1; also called Fab-2A8) VH: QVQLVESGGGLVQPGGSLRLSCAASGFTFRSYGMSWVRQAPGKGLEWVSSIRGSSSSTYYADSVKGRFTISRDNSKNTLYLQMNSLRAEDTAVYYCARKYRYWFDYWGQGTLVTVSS VL: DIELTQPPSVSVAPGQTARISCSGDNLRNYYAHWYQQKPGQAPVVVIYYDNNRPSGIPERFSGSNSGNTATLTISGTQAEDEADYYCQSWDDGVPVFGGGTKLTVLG"
  dPT in hemoA plasma [s]: 57.9

Consider the additional binder presented here.
For record TP-4H8 Fab (Fab, V domains shown, Human Fab from HuCal Gold, expressed in E. coli TG1) VH: QVQLVESGGGLVQPGGSLRLSCAASGFTFSDHAMHWVRQAPGKGLEWVSVIEYSGSKTNYADSVKGRFTISRDNSKNTLYLQMNSLRAEDTAVYYCARGDYYPYLVFAIWGQGTLVTVSS VL: DIELTQPPSVSVAPGQTARISCSGDSIGKKYVHWYQQKPGQAPVLVIYGDNNRPSGIPERFSGSNSGNTATLTISGTQAEDEADYYCSTADSVITYKNVFGGGTKLTVLG the listed dPT in hemoA plasma is 76.5
